TEST_SYSTEM: Neuropeptide Y receptor type 2 (Homo sapiens)
Sequence (P49146 whole entry): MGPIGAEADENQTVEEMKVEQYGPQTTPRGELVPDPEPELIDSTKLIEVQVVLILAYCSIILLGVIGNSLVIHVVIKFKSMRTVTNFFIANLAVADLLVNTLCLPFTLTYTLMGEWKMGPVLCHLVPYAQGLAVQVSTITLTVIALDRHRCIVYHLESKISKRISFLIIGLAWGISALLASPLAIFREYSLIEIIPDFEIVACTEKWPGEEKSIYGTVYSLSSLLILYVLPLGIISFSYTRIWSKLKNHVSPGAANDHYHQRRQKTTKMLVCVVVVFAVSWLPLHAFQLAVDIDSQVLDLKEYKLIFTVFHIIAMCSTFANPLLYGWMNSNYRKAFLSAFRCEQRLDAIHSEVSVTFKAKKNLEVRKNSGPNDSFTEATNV
MEASUREMENT_PROTOCOL: Agonist activity at human Y2R expressed in CHO cell membranes assessed as [35S]GTPgammaS binding after 120 mins by liquid scintillation method
Where a SMILES comes first, the peptide text is derived from it. [ ]: non-standard residue; d: D form. Cha = N[C@@H](CC1CCCCC1)C(=O)O; Aib = CC(C)(N)C(=O)O
PROPERTY_MEASURED: EC50 (nM)
One number for each entry, in nM.

Would you please look over these solved cases?
CC(C)C[C@H](NC(=O)[C@H](CO)NC(=O)[C@H](C)N)C(=O)N[C@@H](CCCNC(=N)N)C(=O)N[C@@H](Cc1cnc[nH]1)C(=O)N[C@@H](CC1CCCCC1)C(=O)N[C@@H](CC1CCCCC1)C(=O)N[C@@H](CC(N)=O)C(=O)N[C@@H](CC(C)C)C(=O)NC(C)(C)C(=O)N[C@H](C(=O)N[C@@H](CCCNC(=N)N)C(=O)N[C@@H](CCC(N)=O)C(=O)N[C@@H](CCCNC(=N)N)C(=O)N[C@@H](CC1CCCCC1)C(N)=O)[C@@H](C)O (H-ASLRH[Cha][Cha]NL[Aib]TRQR[Cha]-NH2)    0.74
CC(=O)N[C@@H](CO)C(=O)N(C)[C@H](C)C(=O)N[C@@H](CCCNC(=N)N)C(=O)N[C@@H](Cc1cnc[nH]1)C(=O)NC(CC1CCCCC1)C(=O)NC(CC1CCCCC1)C(=O)N[C@@H](CC(N)=O)C(=O)N[C@@H](CC(C)C)C(=O)NC(C)(C)C(=O)N[C@H](C(=O)N[C@@H](CCCNC(=N)N)C(=O)N[C@@H](CCC(N)=O)C(=O)N[C@@H](CCCNC(=N)N)C(=O)NC(CC1CCCCC1)C(N)=O)[C@@H](C)O (stereo partly drawn)    0.59

Give reported EC50 value for CCC(NC(=O)[C@H](CCCNC(=N)N)NC(=O)[C@H](CC(C)C)NC(=O)[C@@H](CO)NC(C)=O)C(=O)NC(CC1CCCCC1)C(=O)NC(CC1CCCCC1)C(=O)N[C@@H](CC(N)=O)C(=O)N[C@@H](CC(C)C)C(=O)NC(C)(C)C(=O)N[C@H](C(=O)N[C@@H](CCCNC(=N)N)C(=O)N[C@@H](CCC(N)=O)C(=O)N[C@@H](CCCNC(=N)N)C(=O)NC(CC1CCCCC1)C(N)=O)[C@@H](C)O (stereo partly drawn)
5.5
